- Study system: human Cereblon WT GST-tagged protein (Homo sapiens)
- Construct: purchased CISBIO 64BDCRBNPEH
- Protocol notes: CRBN-binding affinity by HTRF (CEREBLON BINDING kit)
- Condition summary: HTRF inhibitory activity, CEREBLON BINDING kit; read-out: HTRF IC50
Measure: IC50

Please report IC50 for the following compound: Cc1nc(C2=CCN(Cc3ccc4c(c3)C(=O)N(C3CCC(=O)NC3=O)C4=O)CC2)c2c(-c3ccccc3)csc2n1 (stereo not shown)
500 to 1000 nM

Please report IC50 for the following compound: O=C1CCC(N2Cc3cc(CN4CCN(c5ncnc6scc(-c7ccccc7)c56)CC4)ccc3C2=O)C(=O)N1 (stereo not shown)
< 500 nM

Please report IC50 for the following compound: O=C1CCC(N2C(=O)c3ccc(CN4CC=C(c5c[nH]c6cc(F)ccc56)CC4)cc3C2=O)C(=O)N1 (stereo not shown)
500 to 1000 nM

Please report IC50 for the following compound: O=C1CCC(N2Cc3cc(CN4CCN(c5cccc(C(F)(F)F)n5)CC4)ccc3C2=O)C(=O)N1 (stereo not shown)
500 to 1000 nM

---

- Tested on: Human acute T lymphocytic leukemia cells (Molt-4)
- Protocol notes: Tumor cell proliferation inhibition (CellTiter-Meiluncell Luminescent Cell Viability Assay), Molt-4
- Condition summary: MOLT-4, read-out: inhibitory activity (IC50, nM) against tumor cells proliferation, Molt-4
Measure: IC50

Supply IC50 measured with Human acute T lymphocytic leukemia cells (Molt-4) for O=C1CCC(N2C(=O)c3ccc(CN4CC=C(c5c[nH]c6ncccc56)CC4)cc3C2=O)C(=O)N1 (stereo not shown) .
500 to 1000 nM

Supply IC50 measured with Human acute T lymphocytic leukemia cells (Molt-4) for Nc1cccc2c1C(=O)N(C1CCC(=O)NC1=O)C2=O (stereo not shown) [pomalidomide, reference compound] .
> 10000 nM

Supply IC50 measured with Human acute T lymphocytic leukemia cells (Molt-4) for O=C1CCC(N2C(=O)c3ccc(CN4CC=C(c5ncccc5F)CC4)cc3C2=O)C(=O)N1 (stereo not shown) .
500 to 1000 nM

Supply IC50 measured with Human acute T lymphocytic leukemia cells (Molt-4) for O=C1CCC(N2C(=O)c3ccc(CN4CC=C(c5nccc(Cl)c5Cl)CC4)cc3C2=O)C(=O)N1 (stereo not shown) .
100 to 500 nM

Supply IC50 measured with Human acute T lymphocytic leukemia cells (Molt-4) for O=C1CCC(N2C(=O)c3ccc(CN4CC=C(c5ncc6ccsc6n5)CC4)cc3C2=O)C(=O)N1 (stereo not shown) .
500 to 1000 nM

Supply IC50 measured with Human acute T lymphocytic leukemia cells (Molt-4) for Cc1ccc(Sc2ccccc2N2CCN(Cc3ccc4c(c3)C(=O)N(C3CCC(=O)NC3=O)C4=O)CC2)c(C)c1 (stereo not shown) .
100 to 500 nM

Supply IC50 measured with Human acute T lymphocytic leukemia cells (Molt-4) for CC(C)c1cc2c(C3=CCN(Cc4ccc5c(c4)C(=O)N(C4CCC(=O)NC4=O)C5=O)CC3)ncnc2s1 (stereo not shown) .
10 to 50 nM

---

Could you please report measured pIC50 for the items listed next?
- Study system: human Cereblon WT GST-tagged protein (Homo sapiens, UniProt Q96SW2)
- Construct: purchased CISBIO 64BDCRBNPEH
- Sequence (Q96SW2 whole entry): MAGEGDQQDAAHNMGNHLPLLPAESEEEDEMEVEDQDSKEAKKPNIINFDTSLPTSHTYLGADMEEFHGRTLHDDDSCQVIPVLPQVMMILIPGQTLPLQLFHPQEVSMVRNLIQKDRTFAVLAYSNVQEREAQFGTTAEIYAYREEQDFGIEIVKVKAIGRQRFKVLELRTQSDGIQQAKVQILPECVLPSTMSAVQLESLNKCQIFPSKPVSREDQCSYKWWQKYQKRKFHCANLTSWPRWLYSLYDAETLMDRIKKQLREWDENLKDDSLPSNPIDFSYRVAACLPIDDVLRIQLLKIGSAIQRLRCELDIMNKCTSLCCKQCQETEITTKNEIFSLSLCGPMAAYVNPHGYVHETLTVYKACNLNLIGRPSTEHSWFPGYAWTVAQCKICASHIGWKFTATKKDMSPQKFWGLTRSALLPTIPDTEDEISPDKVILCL
- Protocol notes: CRBN-binding affinity by HTRF (CEREBLON BINDING kit)
- Condition summary: HTRF inhibitory activity, CEREBLON BINDING kit; read-out: HTRF IC50
pIC50: −log10 of the molar value.

Please report pIC50 for the following compound: O=C1CCC(N2Cc3cc(CN4CC=C(c5ccco5)CC4)ccc3C2=O)C(=O)N1 (stereo not shown)
> 6.30

Please report pIC50 for the following compound: O=C1CCC(N2C(=O)c3ccc(CN4CC=C(c5ccoc5)CC4)cc3C2=O)C(=O)N1 (stereo not shown)
5.82 to 6.00

Please report pIC50 for the following compound: O=C1CCC(N2Cc3cc(CN4CC(c5ccnc6cc(F)ccc56)C4)ccc3C2=O)C(=O)N1 (stereo not shown)
> 6.30

Please report pIC50 for the following compound: O=C1CCC(N2Cc3cc(CNC45CC6CC(CC(C6)C4)C5)ccc3C2=O)C(=O)N1 (stereo not shown)
5.72 to 5.82

Please report pIC50 for the following compound: O=C1CCC(N2Cc3cc(CN4CCC(c5ncnc6scc(-c7ccccc7)c56)CC4)ccc3C2=O)C(=O)N1 (stereo not shown)
> 6.30

Please report pIC50 for the following compound: O=C1CCC(N2Cc3cc(CN4CCCC(C5CCNCC5)C4)ccc3C2=O)C(=O)N1 (stereo not shown)
5.72 to 5.82

Please report pIC50 for the following compound: O=C1CCC(N2Cc3cc(CN4CCN(c5nc(N6CCOCC6)c6sccc6n5)CC4)ccc3C2=O)C(=O)N1 (stereo not shown)
> 6.30

Please report pIC50 for the following compound: O=C1CCC(N2C(=O)c3ccc(CN4CC=C(c5ncnc6sc7c(c56)CCCC7)CC4)cc3C2=O)C(=O)N1 (stereo not shown)
5.72 to 5.82

Please report pIC50 for the following compound: O=C1CCC(N2Cc3cc(CN4CCC(c5ccccc5C(F)(F)F)CC4)ccc3C2=O)C(=O)N1 (stereo not shown)
6.00 to 6.30

Please report pIC50 for the following compound: O=C1CCC(N2Cc3cc(CN4CC=C(c5nccc(Cl)c5Cl)CC4)ccc3C2=O)C(=O)N1 (stereo not shown)
6.00 to 6.30

Please report pIC50 for the following compound: O=C1CCC(N2Cc3cc(CN4CC=C(c5ccsc5)CC4)ccc3C2=O)C(=O)N1 (stereo not shown)
> 6.30

Please report pIC50 for the following compound: Cc1sc2ncnc(C3CCN(Cc4ccc5c(c4)CN(C4CCC(=O)NC4=O)C5=O)CC3)c2c1C (stereo not shown)
> 6.30

Please report pIC50 for the following compound: O=C1CCC(N2Cc3cc(CN4CCN(c5ncnc(Cl)c5Cl)CC4)ccc3C2=O)C(=O)N1 (stereo not shown)
> 6.30

Please report pIC50 for the following compound: O=C1CCC(N2C(=O)c3ccc(CN4CCN(c5cccs5)CC4)cc3C2=O)C(=O)N1 (stereo not shown)
> 6.30

Please report pIC50 for the following compound: CC(C)c1cc2c(C3=CCN(Cc4ccc5c(c4)C(=O)N(C4CCC(=O)NC4=O)C5=O)CC3)ncnc2s1 (stereo not shown)
5.82 to 6.00

Please report pIC50 for the following compound: Cc1ccsc1C1=CCN(Cc2cccc3c2CN(C2CCC(=O)NC2=O)C3=O)CC1 (stereo not shown)
5.82 to 6.00
